Data provenance: paper PMC8882856

assayed-system: UniProtKB P08588
experimental-conditions: ^3H‐CGP12177; log value
recorded-metric: IC50 (log) β1, IC50>top concentration used

{"columns": ["molecule", "meas-value"],
 "data": [
  ["COc1ccc(NC(=O)N2CCc3c2ccc2ccccc32)cc1N1CCN(C)CC1", "IC50>−5"],
  ["COc1ccccc1N1CCN(CC2CN3C(=O)N(C)c4ccccc4C3=N2)CC1 (centres unmarked)", "IC50>−5"]
]}

====

assayed-system: human α2C‐adrenoceptor (Homo sapiens)
pKd: −log10 of the molar value.
The following molecules are listed with their measured pKd values.

{"columns": ["molecule", "pKd"],
 "data": [
  ["O=C1Nc2ccccc2C2=NC(CN3CCN(c4ccccc4)CC3)CN12 (centres unmarked)", 7.07],
  ["COc1cccc2c1CCC[C@H]2CN(C)CCc1ccc2ccoc2c1.CS(=O)(=O)O", 7.46],
  ["Cc1c[nH]c(=O)n(CCCN2CCN(c3ccccc3OCC(F)(F)F)CC2)c1=O", 7.82],
  ["COc1ccccc1N1CCN(CC2CN3C(=O)N(C)c4ccccc4C3=N2)CC1 (centres unmarked)", 7.50],
  ["COc1ccc(C(CN(C)C)C2(O)CCCCC2)cc1 (centres unmarked)", 3.74],
  ["O=C1c2ccccc2CCC1CNCCc1ccc(O)cc1 (centres unmarked)", 8.05],
  ["COc1ccc(NC(=O)N2CCc3c2ccc2ccccc32)cc1N1CCN(C)CC1", 7.18],
  ["CCS(=O)(=O)N1CCC[C@@H]2CN3CCc4cc(OC)ccc4[C@@H]3C[C@@H]21", 9.36]
]}

====

assayed-system: human α2C‐adrenoceptor (Homo sapiens, UniProt P18825)
Sequence (P18825 1-462): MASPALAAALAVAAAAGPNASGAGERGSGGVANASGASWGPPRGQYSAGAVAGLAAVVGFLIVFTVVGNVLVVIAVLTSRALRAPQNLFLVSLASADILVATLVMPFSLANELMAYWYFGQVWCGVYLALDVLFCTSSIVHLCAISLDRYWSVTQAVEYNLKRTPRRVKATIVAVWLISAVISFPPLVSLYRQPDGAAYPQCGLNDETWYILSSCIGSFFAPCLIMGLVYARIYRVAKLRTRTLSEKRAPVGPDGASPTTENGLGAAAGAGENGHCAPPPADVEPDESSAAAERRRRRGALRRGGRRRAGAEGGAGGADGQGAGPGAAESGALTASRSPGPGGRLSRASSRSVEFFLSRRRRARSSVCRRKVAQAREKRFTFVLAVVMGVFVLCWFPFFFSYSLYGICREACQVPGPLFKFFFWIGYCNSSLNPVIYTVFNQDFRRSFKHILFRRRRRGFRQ
measurement-notes: ^3H‐rauwolscine whole cell competition binding, CHO‐α2C cells
experimental-conditions: ratio of KD values
recorded-metric: Selectivity ratio α2B vs α2C (higher affinity for α2C)

{"columns": ["molecule", "assayed-system", "meas-value"],
 "data": [
  ["CNCCCN1c2ccccc2CCc2ccc(Cl)cc21", "human α2C‐adrenoceptor (Homo sapiens, UniProt P18825)", 1.1],
  ["OCCN1CCN(CCC=C2c3ccccc3Sc3ccc(C(F)(F)F)cc32)CC1", "human α2C‐adrenoceptor (Homo sapiens, UniProt P18825)", 4.0],
  ["Cc1ccc(Sc2ccccc2N2CCNCC2)c(C)c1", "human α2C‐adrenoceptor (Homo sapiens, UniProt P18825)", 3.3],
  ["O=C1CCC(=O)N1C[C@H]1CC[C@H]2CN(c3ncccn3)CCN2C1 [sunepitron]", "human α2C‐adrenoceptor (Homo sapiens, UniProt P18825)", 28.8],
  ["CC(C)(Cc1c[nH]c2ccc(Cl)cc12)NCCOc1ccccc1OCC1CC1", "human α2C‐adrenoceptor (Homo sapiens, UniProt P18825)", 5.0]
]}

====

assayed-system: UniProt:P08913
measurement-notes: ^3H‐rauwolscine whole cell competition binding, CHO‐α2A cells
experimental-conditions: ratio of KD values
Selectivity ratio α2A vs α2B (higher affinity for α2A) for assorted compounds
recorded-metric: Selectivity ratio α2A vs α2B (higher affinity for α2A)

{"columns": ["compound", "meas-value"],
 "data": [
  ["O=C1Nc2ccccc2C2=NC(CN3CCN(c4ccccc4)CC3)CN12 (centres unmarked) [2‐PMDQ]", 4.9],
  ["COc1ccccc1N1CCN(CC2CN3C(=O)N(C)c4ccccc4C3=N2)CC1 (centres unmarked) [2‐MPMDQ]", 7.1],
  ["Cc1c[nH]c(=O)n(CCCN2CCN(c3ccccc3OCC(F)(F)F)CC2)c1=O [RS100329]", 3.4],
  ["O=C1CCC(=O)N1C[C@H]1CC[C@H]2CN(c3ncccn3)CCN2C1 [sunepitron]", 4.3],
  ["CC(C)(Cc1c[nH]c2ccc(Cl)cc12)NCCOc1ccccc1OCC1CC1 [RS17053]", 3.5]
]}

====

pKd reference
assayed-system: human β1‐adrenoceptor (Homo sapiens)
Sequence (P08588 whole entry): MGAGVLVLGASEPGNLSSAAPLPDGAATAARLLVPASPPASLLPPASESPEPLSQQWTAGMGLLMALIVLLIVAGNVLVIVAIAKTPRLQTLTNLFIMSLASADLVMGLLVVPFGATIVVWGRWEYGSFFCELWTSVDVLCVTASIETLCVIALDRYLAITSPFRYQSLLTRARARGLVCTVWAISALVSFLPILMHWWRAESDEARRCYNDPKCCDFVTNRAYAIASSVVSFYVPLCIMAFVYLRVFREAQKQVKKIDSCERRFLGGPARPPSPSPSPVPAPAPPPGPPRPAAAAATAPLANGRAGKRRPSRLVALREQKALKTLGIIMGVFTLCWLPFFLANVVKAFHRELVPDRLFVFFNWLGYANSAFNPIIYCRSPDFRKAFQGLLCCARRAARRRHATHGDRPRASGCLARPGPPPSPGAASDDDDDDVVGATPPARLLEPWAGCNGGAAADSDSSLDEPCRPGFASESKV
pKd: −log10 of the molar value.
recorded-metric: pKd

{"columns": ["molecule", "recorded-metric", "meas-value"],
 "data": [
  ["CN1CCc2cccc(Cl)c2CC1 [SKF86466]", "pKd", 5.92],
  ["Cc1ccc(Sc2ccccc2N2CCNCC2)c(C)c1 [vortioxetine]", "pKd", 6.37],
  ["CCOc1ccccc1OCCN[C@H](C)Cc1ccc(OC)c(S(N)(=O)=O)c1 [tamsulosin]", "pKd", 6.26],
  ["O=C(NC1CCN(CCc2c[nH]c3ccccc23)CC1)c1ccccc1 [indoramin]", "pKd", 4.73]
]}

====

assayed-system: human α2A‐adrenoceptor (Homo sapiens, UniProt P08913)
Sequence (P08913 whole entry): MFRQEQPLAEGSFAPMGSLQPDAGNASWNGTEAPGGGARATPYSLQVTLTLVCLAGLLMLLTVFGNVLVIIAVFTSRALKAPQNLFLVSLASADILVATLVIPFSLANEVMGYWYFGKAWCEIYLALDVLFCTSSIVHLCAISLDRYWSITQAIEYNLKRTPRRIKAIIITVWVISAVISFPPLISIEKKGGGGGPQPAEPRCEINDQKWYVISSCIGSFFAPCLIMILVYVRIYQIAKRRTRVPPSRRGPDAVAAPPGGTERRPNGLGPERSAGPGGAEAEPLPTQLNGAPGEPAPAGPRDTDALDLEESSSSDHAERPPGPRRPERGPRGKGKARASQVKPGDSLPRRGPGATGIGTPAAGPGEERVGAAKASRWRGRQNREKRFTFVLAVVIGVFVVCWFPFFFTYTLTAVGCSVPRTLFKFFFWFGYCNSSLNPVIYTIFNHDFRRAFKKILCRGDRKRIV
measurement-notes: ^3H‐rauwolscine whole cell competition binding, CHO‐α2A cells
recorded-metric: Log KD α2A

{"columns": ["molecule", "meas-value"],
 "data": [
  ["COc1cccc(OC)c1OCCNCC1CSc2ccccc2O1 (centres unmarked)", "−7.17"],
  ["CC(C)(Cc1c[nH]c2ccc(Cl)cc12)NCCOc1ccccc1OCC1CC1", "−6.20"],
  ["COc1ccccc1N1CCN(CCCNc2c(C)c(=O)n(C)c(=O)n2C)CC1", "−5.18"],
  ["CN1CC[C@]2(CCN3CCc4c(oc5ccccc45)[C@@H]3C2)N(C)C1=O", -8.71]
]}

====

assayed-system: human α2A‐adrenoceptor (Homo sapiens, UniProt P08913)
measurement-notes: cell-based
recorded-metric: Kd (nM)

{"columns": ["compound", "assayed-system", "meas-value"],
 "data": [
  ["COc1cc2nc(N3CCN(C(=O)C4CCCO4)CC3)nc(N)c2cc1OC (stereo not drawn)", "human α2A‐adrenoceptor (Homo sapiens, UniProt P08913)", 6610],
  ["O=C1NCN(c2ccccc2)C12CCN(CC1COc3ccccc3O1)CC2 (stereo not drawn)", "human α2A‐adrenoceptor (Homo sapiens, UniProt P08913)", 107],
  ["O=C1CCC(=O)N1C[C@H]1CC[C@H]2CN(c3ncccn3)CCN2C1 [sunepitron]", "human α2A‐adrenoceptor (Homo sapiens, UniProt P08913)", 52.5],
  ["CN(C)CC/C=C1\\c2ccccc2CSc2ccccc21 [dosulepin]", "human α2A‐adrenoceptor (Homo sapiens, UniProt P08913)", 6920],
  ["Cc1ccc(Sc2ccccc2N2CCNCC2)c(C)c1", "human α2A‐adrenoceptor (Homo sapiens, UniProt P08913)", 2340],
  ["CCOc1ccccc1OCCN[C@H](C)Cc1ccc(OC)c(S(N)(=O)=O)c1", "human α2A‐adrenoceptor (Homo sapiens, UniProt P08913)", 468],
  ["CN(CCCN1c2ccccc2CCc2ccccc21)CC(=O)c1ccc(Cl)cc1", "human α2A‐adrenoceptor (Homo sapiens, UniProt P08913)", 13800],
  ["CCn1ccnc1CC1COc2ccccc2O1 (stereo not drawn)", "human α2A‐adrenoceptor (Homo sapiens, UniProt P08913)", 1320],
  ["CNCCCC1c2ccccc2C=Cc2ccccc21", "human α2A‐adrenoceptor (Homo sapiens, UniProt P08913)", 10000],
  ["CN(C)CCCN1c2ccccc2CCc2ccc(Cl)cc21", "human α2A‐adrenoceptor (Homo sapiens, UniProt P08913)", 1950],
  ["OCCN1CCN(CCC=C2c3ccccc3Sc3ccc(C(F)(F)F)cc32)CC1", "human α2A‐adrenoceptor (Homo sapiens, UniProt P08913)", 794],
  ["CCN1CCCC1CNC(=O)c1cc(S(N)(=O)=O)ccc1OC (stereo not drawn) [sulpiride]", "human α2A‐adrenoceptor (Homo sapiens, UniProt P08913)", 31600],
  ["O=C(NC1CCN(CCc2c[nH]c3ccccc23)CC1)c1ccccc1", "human α2A‐adrenoceptor (Homo sapiens, UniProt P08913)", 7410],
  ["C[C@H](Cc1cc2c(c(C(N)=O)c1)N(CCCO)CC2)NCCOc1ccccc1OCC(F)(F)F", "human α2A‐adrenoceptor (Homo sapiens, UniProt P08913)", 3240],
  ["CN(C)CCCN1c2ccccc2CCc2ccccc21", "human α2A‐adrenoceptor (Homo sapiens, UniProt P08913)", 5620],
  ["CC(CN(C)C)CN1c2ccccc2CCc2ccccc21 (stereo not drawn)", "human α2A‐adrenoceptor (Homo sapiens, UniProt P08913)", 2140],
  ["COc1ccccc1N1CCN(CCCNc2cc(=O)n(C)c(=O)n2C)CC1", "human α2A‐adrenoceptor (Homo sapiens, UniProt P08913)", 3240],
  ["CC(C(O)c1ccc(O)cc1)N1CCC(Cc2ccccc2)CC1 (stereo not drawn)", "human α2A‐adrenoceptor (Homo sapiens, UniProt P08913)", 977]
]}
